We begin with Ki values for D(2) dopamine receptor (Rattus norvegicus), as collected from the published literature.
# unit: nM | format: bare number

// solved cases for Ki follow
{"Compound": "CCCN(CCN1CCN(c2ccc(-c3ccc(O)cc3)cc2)CC1)C1CCc2nc(N)sc2C1 (racemic)", "Ki [nM]": 230}
{"Compound": "CCCN1CCc2cc(Cl)c(O)cc2[C@@H]1c1ccccc1", "Ki [nM]": 1900}
{"Compound": "Oc1cccc2c1C[C@@H]1CCCN(CCN3CCN(c4cccc(Cl)c4Cl)CC3)[C@H]1C2 (racemic)", "Ki [nM]": 136}

In the following, a different compound is considered.
Quick one: Ki of Cc1cc(=O)oc2cc(OCCCCN3CCC(c4noc5cc(F)ccc45)CC3)ccc12 ?
4.9
